Below: a set of entries, each annotated with reported melting point.

Here are 10 compounds together with their reported answers.
Cc1c(C)c(N2CCN(c3ccc(C(C)C)cc3)CC2)c(C)c2c1OC(C)(CO)C2 (stereo not drawn) | 160 to 163 °C
CC(=O)OCC1OC(n2cnc(C#N)n2)C(OC(C)=O)C1OC(C)=O (stereo not drawn) | 96 to 97 °C
O=C1N(Cc2ccccn2)c2ccccc2C12COc1cc3[nH]ncc3cc12 (stereo not drawn) | 117 to 119 °C
Cc1cn(C(C)(C)C(=O)N(C)C)nc1-c1ccc(Cl)cc1 | 122 to 124 °C
Nc1cc2cccnc2c(Cc2ccccc2)n1 | 113 to 116 °C
Cc1oc(-c2ccccc2)nc1COc1cccc(/C=C/CO)c1 | 118 to 119 °C
CCCCc1nc(Cl)c(CC(=O)O)c(Cc2ccc(-c3ccccc3C(=O)O)cc2)n1 | 100 to 110 °C
O=C(O)CCc1cnoc1-c1ccc(F)c(Br)c1 | 136 to 137 °C
Cc1cc(Oc2c(Cl)cc(C(F)(F)F)cc2Cl)nn1C(N)=O | 152 to 154 °C
O=C(NC1CCCCC1)C(Br)c1ccccc1 (stereo not drawn) | 126 to 127 °C

Enquiry: If you can, please state the reported melting point value of CCC1(C)CC(NC(=O)c2cccc([N+](=O)[O-])c2O)CC(C)(C)C1 (stereo not drawn) .
Return: 125 to 128 °C

Enquiry: Request the reported melting point associated with COc1cc(C(=O)CBr)cc(Cl)c1OC
Return: 76.5 to 78 °C

Enquiry: Need melting point of CCCCc1nc2c(O)ccc(CCN(C)C)c2[nH]1 , thanks.
Return: 97 to 105 °C

Enquiry: May I ask what melting point has been recorded for CC1CC(N)=NN1c1nc2c(s1)CCCC2 (stereo not drawn) ?
Return: 247 to 249 °C

----------
REPORTED METRIC: melting point

Below, 5 compounds whose answers are already recorded.
Oc1ccc2c(c1)CCC(n1cc[nH]c1=S)C2 (centres undefined) | 240 to 241 °C
CCOCCOc1cc(C)c(-c2cccc(COc3ccc(C=CC(=O)OC)cc3)c2)c(C)c1 | 69 °C
Cc1cccc(C(=O)O)c1N(C)S(=O)(=O)c1ccc(OCCCNC(=O)c2cc3ccccc3[nH]2)cc1 | 199 °C
CCOC(=O)c1c[nH]c2c(O)c(OC)ccc2c1=O | 233 to 236 °C
CS(=O)(=O)c1ccc(-c2ccc3cnc(Nc4ccc(C5CCN(CC(N)=O)CC5)cc4)nn23)cc1 | 310 °C

Enquiry: melting point lookup needed for CC1(C)CCC(C(=O)O)c2ccccc21 (centres undefined) , thanks.
Return: 80 to 81 °C

Enquiry: Look up melting point: COC(=O)C=Cc1ccc(OCc2nc(-c3ccccc3)oc2C)c(C(F)(F)F)c1
Return: 148 to 149 °C

Enquiry: Which melting point reading was recorded for the compound CC(=O)n1nc(OCC(=O)C(C)(C)C)c(-c2ccccc2)c1-c1ccc(S(C)(=O)=O)cc1 ?
Return: 189 to 191 °C

Enquiry: Looking for the measured melting point of COc1c(F)cc2c(O)c(C(=O)NCc3ccc(Cl)cc3)cnc2c1OC , can you help?
Return: 228 to 229 °C

----------
REPORTED METRIC: melting point

These recorded examples may help you get a feel for the data.
O=[N+]([O-])c1cccc(N2N=C(O)c3ccccc3C2CCO)c1 (centres undefined) | 164 to 165 °C
COc1ccc(C2=C(C#N)C(c3cccc4nsnc34)c3c[nH]nc3N2)cc1 (centres undefined) | 238 °C
O=C(Nc1cccc(CN2C(=O)[C@H]3CCC[C@H]3N(C(=O)CN3C(=O)c4ccccc4C3=O)c3ccccc32)c1)c1ccccc1 (relative stereo) | 244 to 246 °C

Enquiry: # get_value(readout='melting point', item= Cc1c(SCCCSCc2ccncc2)ccnc1CNc1ncncc1Cl )
Return: 148 to 149 °C

Enquiry: Need melting point of CCCCOc1cc(=O)n(CCCC)c2ccccc12 , thanks.
Return: 50 to 52 °C

Enquiry: Requested field: melting point. Item: NCC(=O)N(O)Cc1ccccc1
Return: 142 to 143 °C

Enquiry: Requested field: melting point. Item: Cc1cc(Cl)ccc1N=CN(C)SN(C)c1ccccc1
Return: 65 to 67 °C

Enquiry: Record request: melting point value, item O=C(CC1CCCCC1)Nc1c(Cl)ccc2nc(CCCCc3nnn[nH]3)ccc12
Return: 192 to 195 °C
